study_system: COPS6
assay_comment: pooled miR-30 sensor sort-seq; sequence = guide strand
condition: shRNA
endpoint: sensor-assay potency score (higher = more potent)

- TTGTCGGTCGTAGAGGACATTG: -1.74
- TTAAACTGCTCCTCCTTGGTGT: 0.63
- TTGTCTGTGCTGAGCACCGGGA: -0.77
- TTGTCAATGATAATCTTCTCTT: -0.44
- TTCCTTGTCAATGATAATCTTC: -0.166
- TTGAACTTGTTCACAAACTGGT: 0.64

---

study_system: ERG
assay_comment: pooled miR-30 sensor sort-seq; sequence = guide strand
condition: shRNA
endpoint: sensor-assay potency score (higher = more potent)

- TTACATTCCATTTTGATGGTGA: 0.928
- TATTCGTGACATTTTTAGCATC: -1.17
- TTATCGTAGTTCATGTTGGGTT: -0.512
- TTCTTGTCATAGTAGTAACGGA: -1.05
- TTGAGACAGCCAATCCTGCTGA: 0.276
- TTCTGTAGTAAGACTTCAGTAA: 0.212
- TTTCTTTGGCACTTTGTCCTTA: 0.442
- TTCTTTGGCACTTTGTCCTTAA: -0.383
- TAACAAGATGTTGACGTCTGGA: 0.51
- TAAATCTGTGTTTCTAGCATGC: 0.0224
- TCTTGTCATAGTAGTAACGGAG: -1.01
- TATTGCTTTAGTTTCATCCCAG: -0.25
- TAAGACTTCATGCTTCTACATA: -1.33
- TTTTGATTCATGTTCTCCGATA: -0.485
- TGGAAGTCGAACTTGTAGGCGT: 0.335

---

study_system: ASPRV1
assay_comment: pooled miR-30 sensor sort-seq; sequence = guide strand
condition: shRNA
endpoint: sensor-assay potency score (higher = more potent)

- TCATTGATGACTTCAAAGCTGT: -0.318
- TGAGATAGTAGCCCTTACCCAT: -0.959
- TAGCTTGGTGATATGGTCCCAA: 0.0777
- TTCAGGAACCTTAGCTTGGTGA: -1.12
- TTTGTCATCAACAGCAGCTTGA: -0.258
- TCTTTCAGGAACCTTAGCTTGG: -0.57
- TTGAGTCTTTGTCATCAACAGC: -1.26
- ATTGATGACTTCAAAGCTGTGC: 0.217
- TTTCAGGAACCTTAGCTTGGTG: -0.909

---

study_system: LHFPL4
assay_comment: pooled miR-30 sensor sort-seq; sequence = guide strand
condition: shRNA
Classify as follows. Reported sensor-assay potency score (higher = more potent) greater than or equal to -0.8: class 1. Reported sensor-assay potency score (higher = more potent) below: class 0.

* TTGTAGACCGTAGCCGTGTTGC | class 0
* TCCGCATGTAGTGCTCGTGGTA | class 0
* AAATCTTTGTTCTCCGGCTTGA | class 1
* AAAATCTTTGTTCTCCGGCTTG | class 1
* AAGAGCTGCATCCAGGCGCAGA | class 0

---

study_system: IRF2
assay_comment: pooled miR-30 sensor sort-seq; sequence = guide strand
condition: shRNA
sensor-assay potency score (higher = more potent) values for the sequences below.
endpoint: sensor-assay potency score (higher = more potent)

• TACAACTTGGCAAATGTCTGGC = 0.449
• TTCAATATTCCTCTTCCGCCAG = -0.844
• TTTCTTTATGCTTTTATCCTTG = -0.739
• TTTCTGCATAGGAAGACACGGG = -0.335
• TTCTGCATAGGAAGACACGGGG = -0.312
• TTTGCCTTCAATATTCCTCTTC = 0.432
• AATCTCTTGATTCTCAATGTTG = -1.2

---

study_system: KLHL5
assay_comment: pooled miR-30 sensor sort-seq; sequence = guide strand
condition: shRNA
Entries annotated with measured sensor-assay potency score (higher = more potent)
endpoint: sensor-assay potency score (higher = more potent)

• TTTGACATCAGGCACTTTGTGC = -0.672
• TATGCAAATCTGTACAACCTTG = -0.563
• TTGACATCTGTGCACACAGTGT = -0.886
• TAGCACTGCAACACCGAACTGT = 0.529
• TATCTTTCCACACAGTCTGAGA = -1.09
• TTATTGTTGCTTTAAGTCCTTA = -0.543
• TTTCTCTACATAAATTTGCATA = -0.841

---

study_system: WDR74
assay_comment: pooled miR-30 sensor sort-seq; sequence = guide strand
condition: shRNA
Give y when the value for sensor-assay potency score (higher = more potent) is at least -1. Give n when it is less.

- TGACAAGCTTCTGTGATCCTGG: y
- TTCACCGTCCTGTCCGCGCAGC: n
- ATATCTTCAAAGCATTCTCTTT: n
- TTCAAGATCCCAGTCTCGGTGC: y
- TAGTGAGTACTCTCCATAGGTG: y

---

study_system: SLC2A8
assay_comment: pooled miR-30 sensor sort-seq; sequence = guide strand
condition: shRNA
// label = Y if sensor-assay potency score (higher = more potent) is not less than -1, otherwise N

* TTGGTGAGGACGCAGATGCCTG | N
* TCTGCATAGAACATGACGGCGT | Y
* TGAACACCATGACCACACCTGA | Y
* ATCTCTGACATGAGGAGCCAGG | N
* ATTTCGGAGATGTAGACCGGGG | Y
* TAGCTGCACACAGGAGCCGAGC | N

---

study_system: SLC30A1
assay_comment: pooled miR-30 sensor sort-seq; sequence = guide strand
condition: shRNA
Collected sensor-assay potency score (higher = more potent) values appear next to each entry.
endpoint: sensor-assay potency score (higher = more potent)

* TAGTGTCCCACAACATTGCTTC | 0.199
* TTAATCTCTATCACAACAGCAG | 0.193
* TTTGTTTAGGAACAGTTTGTAG | -1.09
* TAATCTCTATCACAACAGCAGG | -1.43
* TACACTAGCAAATTCAGGCTGA | 0.702

---

study_system: TRPV1
assay_comment: pooled miR-30 sensor sort-seq; sequence = guide strand
condition: shRNA
Entries and their sensor-assay potency score (higher = more potent)
endpoint: sensor-assay potency score (higher = more potent)

- ATGTAGACAAACATGAAACGGC: -0.484
- TCGCAGATAAACTTCCTCGGGC: 0.131
- TAGCTGTCCGTGTAGCTGGCGT: -0.712
- TTGAGCAGGAGGATGTAGGTGA: 1.19

---

study_system: KRT86
assay_comment: pooled miR-30 sensor sort-seq; sequence = guide strand
condition: shRNA
endpoint: sensor-assay potency score (higher = more potent)

- TTGCTGTTGCTGGGGACGCTAC: -1.52
- TCCAGCTCGGCCAACTTGCAGC: -1.89
- TGACAATGTCATCGTACTGTGC: -0.56
- AATGTCATCGTACTGTGCCTTG: -0.754
- TCGTACTGTGCCTTGATCTCGG: 0.0587
- TTTATTGGAAACACAGAGTGAA: 0.556
- TTATTGGAAACACAGAGTGAAA: -1.53

---

Examples of sequences with documented sensor-assay potency score (higher = more potent) follow.
study_system: BBC3
assay_comment: pooled miR-30 sensor sort-seq; sequence = guide strand
condition: shRNA
endpoint: sensor-assay potency score (higher = more potent)

* TACAGTATCTTACAGGCTGGGC | -0.231
* TGCTCCTCTTGTCTCCGCCGCT | -1.11
* TGCGTTGAGGTCGTCCGCCATC | -1.7
* TACAGGACCCTCCAGGGTGAGG | -1.57
* TTGTCTCCGCCGCTCGTACTGT | -1
* TGCTCCGCCAGCGAGAGCGAGG | -2.06
* TATACAGTATCTTACAGGCTGG | -0.558
* TTGTACAGGACCCTCCAGGGTG | -1.05

---

study_system: HCK
assay_comment: pooled miR-30 sensor sort-seq; sequence = guide strand
condition: shRNA
Quick reference for sensor-assay potency score (higher = more potent) among some sequences
endpoint: sensor-assay potency score (higher = more potent)

- TTGGTGTGCTTGTTGTAGGTGG: -0.387
- TTCCCTTCCAAATCACAGCTGT: 0.224
- TTTGAGAATGTATTGCCTCCGA: -0.315
- TTCTTCTCCAGCTTGAGGGATT: -0.963
- TTTAGTGGTCTCGCTATCCCGG: -0.689
- TCGTTGTCCTCAATGACCCGGG: -0.328
- TAGTGGTCTCGCTATCCCGGAT: -0.53
- TGATGTTGTAGAGCTCCTCTGG: -0.148
- TTCCTCTAGGACCACCATCTGG: -1.25

---

study_system: BZW1
assay_comment: pooled miR-30 sensor sort-seq; sequence = guide strand
condition: shRNA
Record true whenever sensor-assay potency score (higher = more potent) is at -0.9 or higher; record false when lower.

• TTGCTCAAGGAAAACACTCTTC = true
• TTATCCATGCTGACTTTCCGAA = false
• TTCTTCTTCAGCATTTTTGAGC = true
• TGAAACTCCTTCTTTAACCAAA = true
• TTCAAGAACAGCAGCAGCTTTT = true
• TTAACTTGTTAAAAACCTGAGC = true
• TTGTGAAGTGTTCAACACTTTG = false
